- ASSAYED_TARGET: IL-2Rβγ (CD122+, CD132+) on HEK-Blue IL-2Rβγ reporter cells (UniProt P14784)
- Sequence (P14784 27-551 limits assumed, chain 1 of 2): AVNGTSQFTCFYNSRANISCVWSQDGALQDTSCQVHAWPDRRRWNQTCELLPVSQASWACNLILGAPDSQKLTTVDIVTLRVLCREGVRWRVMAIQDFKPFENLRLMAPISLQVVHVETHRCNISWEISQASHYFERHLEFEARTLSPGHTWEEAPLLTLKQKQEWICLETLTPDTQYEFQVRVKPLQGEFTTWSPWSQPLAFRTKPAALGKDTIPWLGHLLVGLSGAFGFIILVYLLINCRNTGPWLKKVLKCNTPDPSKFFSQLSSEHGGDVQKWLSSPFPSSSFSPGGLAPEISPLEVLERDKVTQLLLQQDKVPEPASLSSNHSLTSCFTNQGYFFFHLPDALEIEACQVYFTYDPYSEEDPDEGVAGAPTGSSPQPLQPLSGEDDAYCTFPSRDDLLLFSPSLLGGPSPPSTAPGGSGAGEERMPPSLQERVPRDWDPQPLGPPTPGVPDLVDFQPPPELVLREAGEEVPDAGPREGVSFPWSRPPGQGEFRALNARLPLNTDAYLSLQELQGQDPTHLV
- Sequence (P31785 23-369 limits assumed, chain 2 of 2, further chain): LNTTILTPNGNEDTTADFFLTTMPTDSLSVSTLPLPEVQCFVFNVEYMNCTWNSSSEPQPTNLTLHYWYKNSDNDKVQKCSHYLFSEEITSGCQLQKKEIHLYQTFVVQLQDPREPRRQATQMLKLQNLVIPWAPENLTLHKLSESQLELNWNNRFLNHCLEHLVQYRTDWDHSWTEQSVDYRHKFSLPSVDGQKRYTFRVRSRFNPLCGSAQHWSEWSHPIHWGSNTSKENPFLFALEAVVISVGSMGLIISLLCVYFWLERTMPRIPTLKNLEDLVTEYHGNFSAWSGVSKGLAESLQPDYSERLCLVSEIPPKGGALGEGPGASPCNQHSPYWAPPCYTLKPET
- PROTOCOL_DESCRIPTION: cell-based or functional assay
Bridges are numbered along the chain shown (N, C = ends). Primed or numbered codes have the meaning given here. [ ]: non-standard residue; d: D form. Ygp(4) = Tyr with amino-capped PEG8 (O-(8x polyethylene glycol-amino)-tyrosine); Yn3(4) = Tyr with azide-capped PEG9 (O-(9x polyethylene glycol-azido)-tyrosine); PEG4′ = 4x polyethylene glycol; PEG9′ = 9x polyethylene glycol; hSer = N[C@@H](CCO)C(=O)O; Nle = CCCC[C@H](N)C(=O)O
Entries and their measured Average EC50 (nM), HEK-Blue IL-2R (CD122+, CD132+) Reporter Assay follow.
// note: answer is a bare numeric in nM

A selection of reference data follows.
BINDER	REPORTED_MEASUREMENT
CMP-154 (ligand, linker N-35 via PEG9′; not fully specified (N-terminus); ends not checked) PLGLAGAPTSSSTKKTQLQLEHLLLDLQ[Nle]ILNGIENYKNPKLTR[Nle]L[hSer][Yn3(4)]KF[Ygp(4)][Nle]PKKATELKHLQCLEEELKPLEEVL[hSer]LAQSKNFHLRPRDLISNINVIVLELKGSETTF[hSer]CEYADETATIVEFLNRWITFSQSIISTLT	0.106
CMP-154, MMP2 cleaved (ligand, linker N-35 via PEG9′; not fully specified (N-terminus); ends not checked; also: cleavable peptide cut by MMP2, site not given here) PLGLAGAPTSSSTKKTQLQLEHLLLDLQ[Nle]ILNGIENYKNPKLTR[Nle]L[hSer][Yn3(4)]KF[Ygp(4)][Nle]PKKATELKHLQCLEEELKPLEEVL[hSer]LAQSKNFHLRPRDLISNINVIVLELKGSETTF[hSer]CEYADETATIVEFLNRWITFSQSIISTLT	0.0059
CMP-159 (ligand, linker N-28 via PEG4′; not fully specified (N-terminus); ends not checked) PLGLAGAPTSSSTKKTQLQLEHLLLDLE[Nle]ILNGINNYKNPKLTR[Nle]L[hSer][Yn3(4)]KF[Ygp(4)][Nle]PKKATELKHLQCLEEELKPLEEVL[hSer]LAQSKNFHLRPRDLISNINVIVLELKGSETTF[hSer]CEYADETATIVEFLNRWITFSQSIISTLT	0.192

Qu. If you can, please state the reported Average EC50 (nM), HEK-Blue IL-2R (CD122+, CD132+) Reporter Assay value of CMP-152 (ligand, not fully specified; Nle, Hse, Yn3 (Tyr with azide-capped PEG9), Ygp (Tyr with amino-capped PEG8) as printed in Table 3; PEG9-PLGLAG on the N-terminus, cyclised through glutaryl to the side chain of Lys 32) PLGLAGAPTSSSTKKTQLQLEHLLLDLQXILNGINNYKNPKLTRXLXYKFYXPKKATELKHLQCLEEELKPLEEVLXLAQSKNFHLRPRDLISNINVIVLELKGSETTFXCEYADETATIVEFLNRWITFSQSIISTLT .
Ans. 0.0597
